# Protocol summary: yeast TOR pathway RPL19A-GFP modulators, primary screen, cell-based, S. cerevisiae, multiplex flow cytometry (AID 1862);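 note: lower values mimic rapamycin by blocking the RPL19A rise seen in DMSO cells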
# Setup conditions: S. cerevisiae RPL19A-GFP strain, flow cytometry fluorescence, 3 h; at 10 µM; stronger effect = lower value
Records with an inconclusive call do not appear.
Assay endpoint: percent of DMSO control GFP (%)
Report the figure in % without appending any unit label.

The molecule listed as O=C(/C=C/c1ccc(Cl)cc1)NCCc1ccccc1 shows percent of DMSO control GFP equal to 102

For reference, reported percent of DMSO control GFP for CC(C)(C)[C@]1(O)CCN2C[C@H]3c4ccccc4CCc4cccc(c43)[C@@H]2C1 stands at 106

Lab note: CCC1(c2ccccc2)C(=O)NCNC1=O gave percent of DMSO control GFP of 102

Summary for this molecule, O=C(O)CCSc1nc2ccccc2s1 : percent of DMSO control GFP is 104

The molecule listed as Cc1cnc(C(=O)NCCc2ccc(S(=O)(=O)NC(=O)NC3CCCCC3)cc2)cn1 shows percent of DMSO control GFP equal to 93.9

Measured percent of DMSO control GFP, CO[C@@H]1O[C@@H]2COC(c3ccccc3)O[C@@H]2[C@@H](OC)[C@@H]1O (some centres not stated) : 103

For O=C(OCC1OC2OC3(CCCCC3)OC2C2OC3(CCCCC3)OC12)c1ccccc1 (configuration not stated) the molecule record lists percent of DMSO control GFP as 90.9

Value of percent of DMSO control GFP reported for the molecule Nc1ccc(S(=O)(=O)c2ccc(N)cc2)cc1 is 100

Entry CCCOc1ccc(-c2cc(C(=O)NCC3CCCO3)c3ccccc3n2)cc1 (configuration not stated) — recorded percent of DMSO control GFP = 99.5

percent of DMSO control GFP reported for this molecule N/C(=N\OS(=O)(=O)c1ccc2ccccc2c1)c1cccnc1 : 103

// percent of DMSO control GFP lookup, molecule = CC1(C(=O)O)CCC(C(=O)NC2CCCCCC2)C1(C)C (configuration not stated) , result: 103

For reference, reported percent of DMSO control GFP for N#Cc1c2c(c(-c3ccccc3)[nH]c1=O)CCCC2 stands at 102

====

What GFP response, % of DMSO was measured for each of the following?
# Protocol summary: modulators of CIT2-GFP expression in yeast, confirmation, S. cerevisiae, GFP fusion, cherry picks, mother/daughter gates (AID 2274)
# Setup conditions: S. cerevisiae CIT2-GFP strain, flow cytometry, 3 h; measured here: daughter cell gate; at 10 µM; stronger effect = higher value
Numeric answer only, unit % assumed.

Sure, the documented GFP response, % of DMSO for CS(=O)(=O)N1N=C(c2ccc(Br)cc2)CC1c1ccc2c(c1)OCO2 (stereo unspecified) is 111

GET /value?item= O=C1c2ccsc2SCCN1Cc1ccccc1Cl &field=GFP response, % of DMSO returns 93.8

Just so you know, measured GFP response, % of DMSO for CCNC(=O)/C(C#N)=C/c1c(N(Cc2ccccc2)Cc2ccccc2)nc2ccccn2c1=O came out at 108

GFP response, % of DMSO in this record for CCN(CC(O)Cn1c2ccccc2c2ccccc21)S(=O)(=O)c1ccc(F)cc1 (stereo unspecified) : 96.4

Entry Cc1ccccc1C(=O)Nc1cccc(C#N)c1 — recorded GFP response, % of DMSO = 99.3

Sure, the documented GFP response, % of DMSO for CC1CCCN(CCCNC(=O)C2CCN(S(=O)(=O)N3CCC4(CC3)OCCO4)CC2)C1 (stereo unspecified) is 106

Looking up N/C(=N\OC(=O)c1cc(Br)ccc1Cl)c1ccccn1 , I found its GFP response, % of DMSO recorded as 105

Query Cc1ccc(N2C(=O)c3ccccc3NC2c2ccccc2O)cc1 (stereo unspecified) yields GFP response, % of DMSO of 105

The compound identified as CCOC(=O)/C=C1\SCC(=O)N1Cc1nnc(-c2ccccc2Br)o1 registered its GFP response, % of DMSO at 101

Given item Cc1cc(C)nc(S/C=C/C(=O)c2ccccc2F)n1 , the value recorded as its GFP response, % of DMSO is 98.1

// GFP response, % of DMSO value for O=C(COC(=O)CCc1nc2ccccc2s1)Nc1nc(-c2ccccc2)cs1 : 98.1

For this compound ( O=S(=O)(c1ccccc1)c1ncc(C(F)(F)F)cc1O ), measured GFP response, % of DMSO is 99.3

The recorded GFP response, % of DMSO for CCOc1ccc(C(=O)/C=C/c2ccccc2C(F)(F)F)cc1 is 105

The compound identified as O=C(CC1SC(=Nc2ccccc2F)N(CCN2CCOCC2)C1=O)Nc1ccc(F)cc1F (stereo unspecified) registered its GFP response, % of DMSO at 99.1

The value of GFP response, % of DMSO measured for the compound CCOc1ccc(CNC(=O)CCC(=O)N2Cc3cccc(OC)c3Oc3ncccc32)cc1 turned out to be 101

// recorded GFP response, % of DMSO for O=C(N/N=C/c1ccc(F)cc1)c1ccc(Br)cc1 : 101

// GFP response, % of DMSO lookup, compound = CCOC(=O)Cc1csc(NC(=O)c2sc3nc4cc(C)ccc4cc3c2N)n1 , result: 102

For reference, reported GFP response, % of DMSO for Cc1cccc(C)c1NC(=O)c1nc(S(=O)(=O)Cc2ccccc2)ncc1Cl stands at 92.3

Sure, the documented GFP response, % of DMSO for Cc1cc(C)c2c(c1)/C(=C/C(=O)c1ccc(Br)s1)C(=O)N2 is 93.8

So for C=CCn1c(C)c(/C=C/c2cc[n+](C)cc2)c2ccccc21 , the logged GFP response, % of DMSO turned out to be 142

GFP response, % of DMSO for Cc1ccc2c(c1)c(/C=C/c1cc[n+](C)cc1)c(C)n2C is 191

// O=C1/C(=C\c2ccccn2)SC(=S)N1Nc1ncc(C(F)(F)F)cc1Cl : GFP response, % of DMSO value = 94.6

Entry COc1ccc(NS(=O)(=O)c2cccc3ccccc23)cc1 , GFP response, % of DMSO reported as 99.1

Record summary for NC(=O)c1ccccc1OCC(=O)c1ccc(Cl)cc1 : reported GFP response, % of DMSO = 97.6

compound CCCCN(CCCC)S(=O)(=O)c1ccc(C(=O)Nc2nnc(COC)o2)cc1 , GFP response, % of DMSO observed: 103

// field: GFP response, % of DMSO; key: O=C1c2ccccc2C(=O)c2c([N+](=O)[O-])ccc(O)c21 ; value = 93.7

Recorded GFP response, % of DMSO (compound Cc1ccc(N2C(=O)C3C4C=CC(CNC(=S)N5CCN(c6cccc(C)c6)C(C)C5)(O4)C3C2=O)cc1 (stereo unspecified) ): 97.6

Form field GFP response, % of DMSO, entry Cn1cnc([N+](=O)[O-])c1S(=O)(=O)c1cccc(Cl)c1 : 119

Value of measured GFP response, % of DMSO for the entry COc1ccc(/C=C/C(=O)c2ccc(OC)cc2O)cc1 : 102

response.value for COc1ccc(/C=C/C(=O)c2ccccc2O)cc1 (field: GFP response, % of DMSO) = 100

Sure, the documented GFP response, % of DMSO for Cc1nn2c(NCc3ccccn3)c3c(nc2c1-c1ccccc1)CCC3 is 95.8

Short answer for O=C(/C=C/Sc1ncn[nH]1)c1ccc(Cl)cc1 : GFP response, % of DMSO was 108

response.value for O=C(NOC(=O)c1ccccc1)c1ccccc1 (field: GFP response, % of DMSO) = 103

// recorded GFP response, % of DMSO for CC(C)Nc1nc(-c2ccccc2)nnc1-c1ccccc1 : 97.6

Query Clc1ccc(OCCn2cnc3ccccc32)c(Cl)c1 yields GFP response, % of DMSO of 80.7

Sure, the documented GFP response, % of DMSO for CCOC(=O)C1CCCN(c2nc3c(C)cccn3c(=O)c2/C=C(\C#N)C(=O)NCc2ccco2)C1 (stereo unspecified) is 104
